recorded-endpoint: melting point

compound=O=C(Cc1ccc(I)cc1)N1CCOCC1 recorded_endpoint="melting point" recorded_result="114 to 117 °C"
compound="CSc1ccc(C(O)c2occc(=O)c2OCc2ccccc2)cc1 (stereo not drawn)" recorded_endpoint="melting point" recorded_result="82 to 82.5 °C"
compound="CC(=O)N1CC(CCN2CC=C(c3c[nH]c4cc(Cl)ccc34)CC2)c2cc(C)ccc21 (stereo not drawn)" recorded_endpoint="melting point" recorded_result="179 to 181 °C"
compound="CCCOc1ccc2c(c1)C(c1ccc(OC)cc1OCC(=O)O)CC2c1ccc2c(c1)OCO2 (stereo not drawn)" recorded_endpoint="melting point" recorded_result="177 to 178 °C"
compound=Cc1cc(OC(C)(C)C(=O)O)c(C)c(Br)c1C recorded_endpoint="melting point" recorded_result="151 to 153 °C"
compound="COCC(OC(N)=O)c1nc2cc(F)c(OC(C)c3c(Cl)ccc(F)c3Cl)cc2s1 (stereo not drawn)" recorded_endpoint="melting point" recorded_result="200 to 205 °C"
compound=O=C1N=C(NN2CCOCC2)SC1=Cc1cccc(-c2cc(F)c(O)c(C34CC5CC(CC(C5)C3)C4)c2)c1 recorded_endpoint="melting point" recorded_result="304 to 309 °C"
compound=O=C(O)c1c2c(nc3ccc(F)cc13)-c1cc(F)c(-c3ccc(F)cc3)cc1CCC2 recorded_endpoint="melting point" recorded_result="> 300 °C"
compound=CCOC(=O)c1cccc2nc(OC)n(Cc3ccc(-c4ccccc4C#N)cc3)c12 recorded_endpoint="melting point" recorded_result="160 to 161 °C"
compound=N#Cc1cc(-c2ccccc2)c(=O)n2c1-c1ccccc1CC2 recorded_endpoint="melting point" recorded_result="204 to 205 °C"
compound="CC(C)CC(NC(=O)c1ccc2c(N)cccc2n1)C(=O)NCC#N (stereo not drawn)" recorded_endpoint="melting point" recorded_result="190 to 194 °C"
compound=Cn1cc(C2=C(c3cn(C)c4cc(CO)ccc34)C(=O)NC2=O)c2ccccc21 recorded_endpoint="melting point" recorded_result="245 to 246 °C"
compound="CCCc1c(OCCCOc2ccc3c(c2CCC)OC(C)(CCC(=O)OC)CC3=O)ccc(C(C)=O)c1O (stereo not drawn)" recorded_endpoint="melting point" recorded_result="73 to 74.5 °C"
compound=O=C(O)c1cn(-c2ccc(F)cc2F)c2nc(S(=O)(=O)c3ccccc3)c(F)cc2c1=O recorded_endpoint="melting point" recorded_result="252 to 258 °C"
compound="CCCOC(=O)C1=C(C)NC(C)=C(C(=O)OCC)C1c1ccccc1C#N (stereo not drawn)" recorded_endpoint="melting point" recorded_result="156 °C"
compound=BrC(Br)=Cc1ccccc1NCc1ccccc1 recorded_endpoint="melting point" recorded_result="93 to 95 °C"
compound="CS(=O)(=O)c1ncnn1C[C@]1(c2ccccc2Cl)O[C@@H]1c1ccc(Cl)cc1Cl (relative stereo)" recorded_endpoint="melting point" recorded_result="129 to 133 °C"
compound=NS(=O)(=O)c1ccc(-c2cnn(Cc3ccc(F)cc3)c(=O)c2-c2ccc(F)cc2)cc1 recorded_endpoint="melting point" recorded_result="237 to 239 °C"
compound=CN(C)CCc1cccc(N2C(=O)N(c3c(Cl)cccc3Cl)Cc3cnc(Nc4ccccc4)nc32)c1 recorded_endpoint="melting point" recorded_result="101 to 105 °C"
compound=C1=CC2=C(CCCC2)n2c3c(c4cnccc42)CCC=C13 recorded_endpoint="melting point" recorded_result="134 to 137 °C"
compound=CC(=O)Nc1cccc2c1CCN(C)C2 recorded_endpoint="melting point" recorded_result="138 to 139 °C"
compound="C=CC(=O)C1C(=O)N(c2ccc(OC)cc2)C1c1ccccc1Cl (stereo not drawn)" recorded_endpoint="melting point" recorded_result="99 to 100 °C"
compound=CCN(C(=O)OCc1ccccc1)c1c(OC)cc(C(=O)OC)cc1OC recorded_endpoint="melting point" recorded_result="85 to 86 °C"
compound=Cn1cc(C(=O)NCc2ccc(Cl)cc2)c(=O)c2cc(CN3CCOCC3)cc(C#Cc3ccncc3)c21 recorded_endpoint="melting point" recorded_result="200 to 202 °C"
compound=CCC(=O)N1C(=O)OC(C)(C)[C@H]1c1ccccc1 recorded_endpoint="melting point" recorded_result="60 °C"
compound=CC(C)Oc1ccc(/C=C/C=C/CO)cc1 recorded_endpoint="melting point" recorded_result="91 to 92 °C"
compound=CCN1C(=O)C(C)(C)C(=O)N(C)c2cc(CN(CCn3ccc4oc(C)cc4c3=O)CCn3ccc4oc(C)cc4c3=O)ccc21 recorded_endpoint="melting point" recorded_result="160 to 165 °C"
compound=COc1ccc(C(=O)Nc2ccc(F)c(F)c2)cc1NC(=S)Nc1cc(Cl)cc(Cl)c1 recorded_endpoint="melting point" recorded_result="180 to 183 °C"
compound="CC(C)(C)C1=C(C#N)C(c2cccc3nonc23)c2c[nH]nc2N1 (stereo not drawn)" recorded_endpoint="melting point" recorded_result="204 °C"
compound="N#CC(C(=O)Nc1ccc(S(=O)C(F)(F)F)cc1)=C(O)C1CC1 (stereo not drawn)" recorded_endpoint="melting point" recorded_result="155 to 157 °C"
compound=COC(=O)c1ccc(-c2coc(-c3ccc4c(c3)C(C)(C)CCC4(C)C)c2)cc1 recorded_endpoint="melting point" recorded_result="109 to 111 °C"
compound=NS(=O)(=O)c1ccc(-c2cccc(-c3nc(-c4ccc(C(F)(F)F)cc4F)cc(C(F)(F)F)n3)c2)s1 recorded_endpoint="melting point" recorded_result="192 °C"
compound="CC1CC(NC(=O)C(F)(F)F)=NN1c1ccc(C(=O)C(F)(F)F)cc1 (stereo not drawn)" recorded_endpoint="melting point" recorded_result="189 to 190 °C"
compound=Cc1cc(-c2cccc(C(=O)CC(=O)Nc3cc(-c4ccccc4F)ccc3NC(=O)OC(C)(C)C)c2)on1 recorded_endpoint="melting point" recorded_result="158 to 160 °C"
compound=COc1cc(/C=C/C(=O)CC(=O)/C=C/c2ccc(O)cc2Cl)ccc1O recorded_endpoint="melting point" recorded_result="185 to 192 °C"
compound=COC(=O)N(C)c1cccc(-c2ccc3nncn3n2)c1 recorded_endpoint="melting point" recorded_result="195 to 199 °C"
compound=CCOC(=O)c1cccc(-c2ccc3c(c2)N(C(=O)Cc2cccc(C(F)(F)F)c2)CC3)c1 recorded_endpoint="melting point" recorded_result="222 to 223 °C"
compound=CC(C)Oc1n[nH]c(=O)n1C recorded_endpoint="melting point" recorded_result="142 °C"

* * *

recorded-endpoint: melting point

compound=COc1cc(C(=O)NS(C)(=O)=O)cc(OC)c1-c1ccc(C[C@H](NC(=O)c2c(Cl)cccc2Cl)C(=O)O)cc1 recorded_result="277 to 278 °C"
compound=CCCN(CCC)CCOc1ccc2[nH]c(C)c(C(=O)OCc3ccccc3)c2c1 recorded_result="123 to 125 °C"
compound=COC(=O)/C=C/c1cc(C)cc(NC(C)=O)n1 recorded_result="139 °C"
compound=CC(C#N)=C1CCN(c2ccc(N3C[C@H](CNC(=O)CC#N)OC3=O)cc2F)CC1 recorded_result="194 to 196 °C"
compound=CC(C)N1Cc2c(-n3c(=O)cc(C(F)(F)F)[nH]c3=O)ccc(Cl)c2C1=O recorded_result="> 250 °C"
compound=COc1ccc(-n2c(Cl)ccc2-c2ccc(S(N)(=O)=O)cc2)cc1 recorded_result="119 to 120 °C"
compound=CC(C)(O)c1cc2cc(O)c(Cl)c(Cl)c2s1 recorded_result="171 to 173 °C"
compound="CC(C)(C)N1C(=O)OC2(CCN(Cc3ccccc3)CC2)C1(C)O (stereo unspecified)" recorded_result="179 to 181 °C"
compound="CC(C(=O)O)c1ccc(C(=O)c2ccc(Cl)cc2)n1C (stereo unspecified)" recorded_result="139 to 141 °C"
compound="CCN(CC)CC1CCCN(CC(=O)N2c3ccccc3C(=O)Nc3cccnc32)C1 (stereo unspecified)" recorded_result="199 to 200 °C"
compound=O=c1n(CCCF)nnn1-c1ccc(Cl)cc1F recorded_result="62 to 63 °C"
compound=Clc1ccc(C(c2ccccc2)(c2ncc[nH]2)c2ncc[nH]2)cc1 recorded_result="140 °C"
compound="CN1CCC(OC2c3ccccc3CCn3cc(-c4ccccc4)nc32)CC1 (stereo unspecified)" recorded_result="113 °C"
compound=Cc1nc2cc(NC(=O)c3ccc(Cl)cc3Cl)ccc2n1C recorded_result="275 to 277 °C"
compound=CSc1cc2c(cc1C(F)(F)F)N(C(=O)Nc1ccc(CO)cc1)CC2 recorded_result="184 to 187 °C"
compound=c1cnc2c(c1)Cc1ncccc1-2 recorded_result="85 °C"
compound=CC(C)Cc1cc(OCCc2ccsc2)c2[nH]nc(Nc3nccs3)c2c1 recorded_result="150 to 151 °C"
compound="Cc1cc2c(c3oc4ccccc4c(=O)c13)CC(C(=O)O)O2 (stereo unspecified)" recorded_result="231 to 234 °C"
compound=CC(=O)CCCCC(=O)Nc1ccccc1 recorded_result="85.5 to 86.5 °C"
compound=Cc1c(C)n(Cc2ccccc2)c2ncnc(Nc3cccc(Cl)c3)c12 recorded_result="132 to 133 °C"
compound=COc1ccc(C2=NN(C3CCN(S(=O)(=O)c4ccccc4OC(F)(F)F)CC3)C(=O)CC2)cc1OC recorded_result="118 to 119 °C"
